Consider the following AC50 values measured on Cytochrome P450 2D6 (Homo sapiens, UniProt P10635).
Sequence (P10635 whole entry): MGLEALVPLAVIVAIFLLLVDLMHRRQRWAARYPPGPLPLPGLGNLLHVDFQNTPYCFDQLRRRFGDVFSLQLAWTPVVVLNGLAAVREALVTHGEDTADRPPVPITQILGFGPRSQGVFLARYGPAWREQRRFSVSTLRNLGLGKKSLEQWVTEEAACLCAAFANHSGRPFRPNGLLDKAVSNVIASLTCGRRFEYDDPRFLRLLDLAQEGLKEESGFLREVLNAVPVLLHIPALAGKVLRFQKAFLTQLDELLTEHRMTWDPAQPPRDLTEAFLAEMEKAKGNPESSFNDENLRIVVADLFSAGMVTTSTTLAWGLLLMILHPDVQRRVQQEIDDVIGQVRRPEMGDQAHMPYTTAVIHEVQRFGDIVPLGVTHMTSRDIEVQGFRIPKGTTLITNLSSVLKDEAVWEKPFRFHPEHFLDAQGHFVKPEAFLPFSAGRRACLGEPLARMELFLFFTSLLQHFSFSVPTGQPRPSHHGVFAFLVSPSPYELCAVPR

INSERT INTO results (sample_smiles, measurement_target, reported) VALUES
  ('Cc1ccc(NCC(=O)N/N=C\c2ccc([N+](=O)[O-])o2)cc1', 'Cytochrome P450 2D6 (Homo sapiens, UniProt P10635)', '15.8 µM (inconclusive)'),
  ('Cc1cc(Cn2cnc3c2C[C@@H](C(=O)O)N(C(=O)C(c2ccccc2)c2ccccc2)C3)ccc1N(C)C', 'Cytochrome P450 2D6 (Homo sapiens, UniProt P10635)', '39.8 µM (inconclusive)'),
  ('C=CCNS(=O)(=O)c1cccc2cc(C(=O)O)c(O)cc12', 'Cytochrome P450 2D6 (Homo sapiens, UniProt P10635)', '22.4 µM (inconclusive)'),
  ('COc1cccc(/C=N/NC(=O)c2cc(-c3cccn3C)[nH]n2)c1', 'Cytochrome P450 2D6 (Homo sapiens, UniProt P10635)', '0.00794 µM (inconclusive)'),
  ('CCN(CC)CC[n+]1ccc2c(C)c3[nH]c4ccc(O)cc4c3c(C)c2c1', 'Cytochrome P450 2D6 (Homo sapiens, UniProt P10635)', '6.31 µM (inconclusive)'),
  ('Cc1ccccc1-c1nccc(Nc2ccc(F)cc2)n1', 'Cytochrome P450 2D6 (Homo sapiens, UniProt P10635)', '20 µM (inconclusive)');

Write AC50 of `CN(C)c1ccc(-c2ccc3ncnc(NCc4ccccc4)c3c2)cc1` ; system used: Cytochrome P450 2D6 (Homo sapiens, UniProt P10635);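 note: CYP2D6 member of a cytochrome P450 panel assay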
12.6 µM (inconclusive)
